tested on: UACC-257 melanoma; assay: NCI-60 one-dose screen, 48 h (100 = growth as untreated, 0 = no growth, -100 = all killed); details: 10 µM unless noted
This is part of a sample that, as a whole, favours compounds with a hit. Of some 83,000 tested, about 20% had one in any assay.

>  <Compound>
C[C@H](Nc1nc(NCCc2ccccc2)nc2ccccc12)c1ccccc1

>  <growth [%]>
-76

$$$$
>  <Compound>
CN1CCN(c2ccc(C(=O)/C=C/c3ccc(Br)cc3)cc2)CC1

>  <growth [%]>
25.4

$$$$
>  <Compound>
Brc1ccc(N/N=C/c2c[nH]c3ccc(Br)cc23)nc1

>  <growth [%]>
7.1

$$$$
>  <Compound>
Cc1cccc(NC(=O)CN2CCN(c3ncnc4c3cnn4-c3ccccc3)CC2)c1

>  <growth [%]>
102

$$$$
>  <Compound>
C#CCOc1cc(N(CC)CC)ccc1C(C(=O)NC(C)(C)C)N(C(=O)C1CCc2cc(F)ccc2O1)c1ccc(F)c(Cl)c1 (stereo unspecified)

>  <growth [%]>
58.2

$$$$
>  <Compound>
COc1ccc(/C=C/c2nc3ccccc3c(=O)n2CC(=O)Nc2ccc(OC)cc2)cc1

>  <growth [%]>
103

$$$$
>  <Compound>
COc1cc2oc(-c3cccc(NC(=O)[C@H](CC(N)=O)NC(=O)OC(C)(C)C)c3)cc(=O)c2c(OC)c1OC

>  <growth [%]>
112

$$$$
>  <Compound>
Cn1cc(-c2nc(N)nnc2-c2c[nH]c3ccc(Br)cc23)c2cccnc21

>  <growth [%]>
81.3

$$$$
>  <Compound>
Cc1cccc(-c2nc(Nc3cccc(S(N)(=O)=O)c3)c3ccccc3n2)c1

>  <growth [%]>
87

$$$$
>  <Compound>
CC1(C)CC[C@]2(C(=O)O)CC[C@]3(C)C(=CCC4[C@@]5(C)C[C@@H](O)[C@@H]6OC(c7cccc(Br)c7)OC[C@@]6(C)C5CC[C@]43C)C2C1 (stereo partly specified)

>  <growth [%]>
53.1

$$$$
>  <Compound>
CCCCSc1nc(Nc2ccc(S(N)(=O)=O)cc2)c(C#N)c(-c2cc(OC)c(OC)c(OC)c2)n1

>  <growth [%]>
61.7

$$$$
>  <Compound>
O=C(c1ccc(OCCN2CCOCC2)cc1)C1[C@H](c2ccc(Cl)cc2)[C@@H](c2ccccc2)NC12C(=O)Nc1ccc(Cl)cc12 (stereo partly specified)

>  <growth [%]>
45.4

$$$$
>  <Compound>
CC1(c2cc3cc(Cl)ccc3oc2=O)NC(=O)c2c(/C=C/C(=O)OC3CC4CCC3(C)C4(C)C)cccc2N1 (stereo unspecified)

>  <growth [%]>
57.2

$$$$
>  <Compound>
Cc1nc(Nc2ccccn2)sc1C(=O)CC(SCC(=O)Nc1ccc(Cl)cc1)c1ccccc1F (stereo unspecified)

>  <growth [%]>
36.9

$$$$
>  <Compound>
Cn1cc(-c2cc(N)n3nc(-c4cn(C)c5ccccc45)cc3n2)c2cc(Br)ccc21

>  <growth [%]>
-71

$$$$
>  <Compound>
Nc1nc(-c2ccccc2)c(N=Nc2ccc(Cl)cc2[N+](=O)[O-])s1

>  <growth [%]>
103

$$$$
>  <Compound>
Cc1c(C(=O)NNC(=O)c2ccc(Cl)cc2)nnn1-c1ccc(Br)cc1

>  <growth [%]>
97.7

$$$$
>  <Compound>
CC(C)c1ccc2c(N)c(C(=O)Nc3cccc(C(F)(F)F)c3)sc2n1

>  <growth [%]>
90.1

$$$$
>  <Compound>
CC1[C@H]2[C@H](C[C@H]3[C@@H]4CC=C5c6sc(Nc7ccccc7F)nc6CC[C@]5(C)[C@H]4CC[C@@]32C)O[C@]12CC[C@@H](C)CO2 (stereo partly specified)

>  <growth [%]>
-85.1

$$$$
>  <Compound>
CC(C)c1sc(NC(=O)c2cc(NC(=O)c3cc(NC(=O)c4cscn4)cn3C)cn2C)nc1C(=O)NCCCN(C)C

>  <growth [%]>
7.52

$$$$
>  <Compound>
COc1ccc([C@H](C)Nc2nc(Cl)nc3ccccc23)cc1

>  <growth [%]>
48.2

$$$$
>  <Compound>
COc1ccc(-c2nnc3ccc(N/N=C/c4ccc(O)cc4)nn23)cc1

>  <growth [%]>
82.3

$$$$
>  <Compound>
COc1ccc(NC(=O)c2sc3nc(C(C)C)ccc3c2N)cc1

>  <growth [%]>
88.7

$$$$
>  <Compound>
COc1cc(NC(=O)c2cccc(C3CCc4c(cc(OC)c(OC)c4OC)O3)c2)cc(OC)c1OC (stereo unspecified)

>  <growth [%]>
33.7

$$$$
>  <Compound>
Cc1ccc(C2=NN(c3nc(-c4cc5ccccc5oc4=O)cs3)C(c3ccc(C)cc3)C2)cc1 (stereo unspecified)

>  <growth [%]>
112

$$$$
>  <Compound>
COc1ccc(-c2nc3cc(C)ccc3n2CC(=O)N=Nc2c(O)[nH]c3ccc(Br)cc23)cc1

>  <growth [%]>
1.58

$$$$
>  <Compound>
Cn1cc(NC(=O)c2cc(NC(=O)c3ccc(/C=C/c4ccccc4)cc3)cn2C)cc1C(=O)NCCCN1CCOCC1

>  <growth [%]>
77.9

$$$$
>  <Compound>
Cn1cc(-c2cc3nc(-c4cn(C)c5ncccc45)cc(N)n3n2)c2cc(Cl)ccc21

>  <growth [%]>
-76.5

$$$$
>  <Compound>
COc1ccc(-c2nc3ccc(C(=O)NN4C(=O)c5ccc([N+](=O)[O-])cc5C4=O)cc3[nH]2)cc1

>  <growth [%]>
94.2

$$$$
>  <Compound>
CC(C)Sc1nc(NCCc2c[nH]c3ccccc23)c(C#N)c(-c2ccccc2)n1

>  <growth [%]>
86.4

$$$$
>  <Compound>
COc1ccc(C(SCCNCc2cc(N(C)C)ccn2)(c2ccccc2)c2ccccc2)cc1

>  <growth [%]>
-20.9

$$$$
